System: Streptococcus suis
METHOD SUMMARY: Inhibition of Streptococcus suis 628 binding to pigeon ovomucoid by ELISA
Type: functional, organism-based
MEASURED METRIC: IC50 (µM)
Field format: number, assumed µM, no unit text.

// query Query IC50 on Streptococcus suis for `COC(=O)c1cccc(OCCNC(=O)COCC(=O)NCCCO[C@@H]2O[C@H](CO)[C@H](O[C@H]3O[C@H](CO)[C@H](O)[C@H](O)[C@H]3O)[C@H](O)[C@H]2O)c1`
// result 45

---

Item-by-item account of Ratio IC50
Tested on: Streptococcus suis
METHOD SUMMARY: Relative potency against Streptococcus suis 628 mediated hemagglutinination of human erythrocytes measured as IC50 for monovalent galobiose compound to the multivalent compound
Format: functional
Just the number, please.

Record excerpt, results attached:
# QUERY SMILES, ENDPOINT VALUE
rows = [
    ("O=C(COCC(=O)NCCCO[C@@H]1O[C@H](CO)[C@H](O[C@H]2O[C@H](CO)[C@H](O)[C@H](O)[C@H]2O)[C@H](O)[C@H]1O)NCC#Cc1cccc(C#CCNC(=O)COCC(=O)NCCCO[C@@H]2O[C@H](CO)[C@H](O[C@H]3O[C@H](CO)[C@H](O)[C@H](O)[C@H]3O)[C@H](O)[C@H]2O)c1", 225),
    ("O=C(COCC(=O)NCCCO[C@@H]1O[C@H](CO)[C@H](O[C@H]2O[C@H](CO)[C@H](O)[C@H](O)[C@H]2O)[C@H](O)[C@H]1O)NCC#Cc1ccc(C#CCNC(=O)COCC(=O)NCCCO[C@@H]2O[C@H](CO)[C@H](O[C@H]3O[C@H](CO)[C@H](O)[C@H](O)[C@H]3O)[C@H](O)[C@H]2O)cc1", 128),
    ("COC(=O)c1cc(OCCNC(=O)COCC(=O)NCCCOCCOCCOCCCNC(=O)COCC(=O)NCCCO[C@@H]2O[C@H](CO)[C@H](O[C@H]3O[C@H](CO)[C@H](O)[C@H](O)[C@H]3O)[C@H](O)[C@H]2O)cc(OCCNC(=O)COCC(=O)NCCCOCCOCCOCCCNC(=O)COCC(=O)NCCCO[C@@H]2O[C@H](CO)[C@H](O[C@H]3O[C@H](CO)[C@H](O)[C@H](O)[C@H]3O)[C@H](O)[C@H]2O)c1", 100),
]

Would you kindly look at the next entry?
// query Please report the recorded Ratio IC50 for `COC(=O)c1cc(OCCNC(=O)COCC(=O)NCCCO[C@@H]2O[C@H](CO)[C@H](O[C@H]3O[C@H](CO)[C@H](O)[C@H](O)[C@H]3O)[C@H](O)[C@H]2O)cc(OCCNC(=O)COCC(=O)NCCCO[C@@H]2O[C@H](CO)[C@H](O[C@H]3O[C@H](CO)[C@H](O)[C@H](O)[C@H]3O)[C@H](O)[C@H]2O)c1` .
// result 150
